Where do these numbers come from? They come from patent US20240148821A1.

biological target: protein-protein interaction between Kras and SOS1 (biotin-tagged human Kras loaded with GDP, His-tagged human SOS1) (Homo sapiens (Human), UniProt P01116, G12D); test: Protein-protein interaction inhibition between Kras and SOS1 (KrasG12D-SOS PPI) using AlphaScreen; type: biochemical; settings: AlphaScreen; biotin-tagged human Kras loaded with GDP, His-tagged human SOS1; read-out: KRAS G12D-SOS PPI IC50;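 note: kras produced in E. coli, Ni-coupled donor beads and streptavidin acceptor beads, excitation 680 nm with emission detected at 520–620 nm via singlet oxygen transfer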
Bridge positions count the residues as written; N and C are the ends. Square brackets hold non-standard residues; d marks the D form. Peptide text beside a SMILES is read from it. * marks the point of attachment. hPhe(3-Cl-4-CF3) = N[C@@H](CCc1ccc(C(F)(F)F)c(Cl)c1)C(=O)O; NMeGly(cPent) = CN[C@H](C(=O)O)C1CCCC1; NMe3Pal = CN[C@@H](Cc1cccnc1)C(=O)O; NMeCha = CN[C@@H](CC1CCCCC1)C(=O)O; NMeChg = CN[C@H](C(=O)O)C1CCCCC1; NMeT = CN[C@H](C(=O)O)[C@@H](C)O; NMeE = CN[C@@H](CCC(=O)O)C(=O)O; NMeD = CN[C@@H](CC(=O)O)C(=O)O; NMeL = CN[C@@H](CC(C)C)C(=O)O; d(β3hA) = C[C@@H](N)CC(=O)O; Morpholide = C1CN(*)CCO1; NMeA = CN[C@@H](C)C(=O)O; Piperidide = C1CCN(*)CC1; Ac5c = NC1(C(=O)O)CCCC1; Aze = O=C(O)[C@@H]1CCN1; Sar = CNCC(=O)O
So I've got a bunch of compounds here, and I need their pIC50 values.
The meaning of pIC50 here: minus log10 of the concentration in molar units.

For this compound ( CC[C@H](C)[C@@H]1NC(=O)[C@H](CC(C)C)N(C)C(=O)C[C@@H](C)NC(=O)[C@H](C2CCCC2)N(C)C(=O)C2(CCCC2)NC(=O)[C@@H]2CCCN2C(=O)[C@H](CCc2ccc(C(F)(F)F)c(Cl)c2)NC(=O)CN(C)C(=O)[C@H](CC2CCCCC2)N(C)C(=O)[C@@H]2CCN2C(=O)[C@H](C)N(C)C1=O [Compound 1477] (cyclo([Ac5c][NMeGly(cPent)][d(β3hA)][NMeL]I[NMeA][Aze][NMeCha][Sar][hPhe(3-Cl-4-CF3)]P)) ), measured pIC50 is 7.55

For this compound ( CC[C@H](C)[C@@H]1NC(=O)[C@H](CC(C)C)N(C)C(=O)C[C@@H](C(=O)N2CCCCC2)N(C)C(=O)[C@H]([C@@H](C)O)N(C)C(=O)C2(CCCC2)NC(=O)[C@@H]2CCCN2C(=O)[C@H](CCc2ccc(C(F)(F)F)c(Cl)c2)NC(=O)CN(C)C(=O)[C@H](CC2CCCCC2)N(C)C(=O)[C@@H]2CCN2C(=O)[C@H](C)N(C)C1=O [Compound 228] ([NMeL]I[NMeA][Aze][NMeCha][Sar][hPhe(3-Cl-4-CF3)]P[Ac5c][NMeT][NMeD]-Piperidide; lactam N-11) ), measured pIC50 is 7.62

For this compound ( CC[C@H](C)[C@@H]1NC(=O)[C@H](CC(C)C)N(C)C(=O)C[C@@H](C(=O)N2CCOCC2)N(C)C(=O)[C@H](C2CCCCC2)N(C)C(=O)C2(CCCC2)NC(=O)[C@H](Cc2cccnc2)N(C)C(=O)[C@H](CCc2ccc(C(F)(F)F)c(Cl)c2)NC(=O)CN(C)C(=O)[C@H](CC2CCCCC2)N(C)C(=O)CN(C)C(=O)CN(C)C1=O [Compound 1745] ([NMeL]I[Sar][Sar][NMeCha][Sar][hPhe(3-Cl-4-CF3)][NMe3Pal][Ac5c][NMeChg][NMeD]-Morpholide; lactam N-11) ), measured pIC50 is 8.89

For this compound ( CC[C@H](C)[C@@H]1NC(=O)[C@H](CC(C)C)N(C)C(=O)C[C@@H](C(=O)N2CCOCC2)N(C)C(=O)[C@H](C2CCCC2)N(C)C(=O)C2(CCCC2)NC(=O)[C@H](CCC(=O)N(C)C)N(C)C(=O)[C@H](CCc2ccc(C(F)(F)F)c(Cl)c2)NC(=O)CN(C)C(=O)[C@H](CC2CCCCC2)N(C)C(=O)[C@@H]2CCN2C(=O)[C@H](C)N(C)C1=O [Compound 2108] ([NMeL]I[NMeA][Aze][NMeCha][Sar][hPhe(3-Cl-4-CF3)][NMeE](NMe2)[Ac5c][NMeGly(cPent)][NMeD]-Morpholide; lactam N-11) ), measured pIC50 is 8.10
